# system: Rap guanine nucleotide exchange factor 3 (Homo sapiens) (UniProt O95398)
# Sequence (O95398 whole entry, looked up): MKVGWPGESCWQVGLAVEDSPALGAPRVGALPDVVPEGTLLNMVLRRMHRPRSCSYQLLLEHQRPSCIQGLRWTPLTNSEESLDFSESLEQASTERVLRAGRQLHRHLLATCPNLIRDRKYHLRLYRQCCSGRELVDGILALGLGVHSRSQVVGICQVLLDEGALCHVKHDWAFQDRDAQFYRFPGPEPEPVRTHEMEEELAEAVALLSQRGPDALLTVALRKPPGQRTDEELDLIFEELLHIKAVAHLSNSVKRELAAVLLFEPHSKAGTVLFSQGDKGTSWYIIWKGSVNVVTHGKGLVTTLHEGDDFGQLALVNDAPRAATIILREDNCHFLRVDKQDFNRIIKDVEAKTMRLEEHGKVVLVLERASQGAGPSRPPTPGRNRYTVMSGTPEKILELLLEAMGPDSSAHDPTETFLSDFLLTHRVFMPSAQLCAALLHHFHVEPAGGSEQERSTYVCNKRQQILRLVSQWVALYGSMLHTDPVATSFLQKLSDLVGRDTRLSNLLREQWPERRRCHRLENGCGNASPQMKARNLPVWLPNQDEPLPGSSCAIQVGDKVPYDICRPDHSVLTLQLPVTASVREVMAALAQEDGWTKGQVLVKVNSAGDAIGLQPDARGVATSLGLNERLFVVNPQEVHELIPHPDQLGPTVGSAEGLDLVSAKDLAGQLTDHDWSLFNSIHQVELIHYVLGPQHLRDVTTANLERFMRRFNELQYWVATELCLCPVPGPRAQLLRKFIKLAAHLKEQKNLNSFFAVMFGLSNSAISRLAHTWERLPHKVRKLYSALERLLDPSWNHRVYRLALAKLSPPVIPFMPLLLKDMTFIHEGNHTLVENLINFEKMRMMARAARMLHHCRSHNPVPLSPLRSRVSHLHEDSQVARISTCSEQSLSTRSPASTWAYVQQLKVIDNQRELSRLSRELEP
# measurementNotes: Validation qHTS for antagonist of cAMP-regulated guanine nucleotide exchange factor 3 (EPAC1); further: nearly all actives have a fitted effect of over 75% in size
# assaySetup: EPAC1 Rap1B-BODIPY-GDP exchange, fluorescence; series mostly up to 150 µM
Out of some 16,000 compounds screened, about 120 (0.75%) were called active. About 4% were inconclusive and are not listed. The call rests on the fitted dose curve; in most records, active means well fitted inhibition curve with a large enough effect; inconclusive means small, poorly fitted or top-dose-only effect; inactive means no such curve, though single readings can be large or run the other way. The sample holds actives, similar compounds and a random draw of the others, so the mix is not that of the screen.
Possible outcomes: active, inactive

{"columns": ["molecule", "discreteLabel"],
 "data": [
  ["Clc1ccc2ncnc(NCc3ccc4c(c3)OCO4)c2c1", "inactive"],
  ["CCCN1CCC(=O)N([C@H](CO)Cc2ccccc2)CC1", "inactive"],
  ["CCc1oc2ccccc2c1C(=O)c1cc(I)c(O)c(I)c1", "active"],
  ["COC(=O)c1c(OCCN2CCCCC2)cc(=O)n2c1CCN(Cc1cccc3nccnc13)CC2", "inactive"],
  ["Cc1cc(C)n(-c2cccc(C(=O)NCC3Cc4cccc(-c5cccnc5)c4O3)c2)n1 (stereo unspecified)", "inactive"],
  ["O=C(c1cnccn1)N1CCC2(CCCN(Cc3nccs3)C2)CC1", "inactive"],
  ["O=C(/C=C/c1ccc(O)c(O)c1)OCCc1ccccc1", "inactive"],
  ["C[C@@H]1C(=O)CC2C(C)(C)CCC[C@]2(C)[C@@]1(O)CCc1ccoc1 (stereo partly specified)", "inactive"],
  ["O=C(c1cnsn1)N1CCOc2ccc(CN3CCOCC3)cc2C1", "inactive"],
  ["C#CCN(Cc1nc(N2CCOCC2)c2ccc(Cl)cc2n1)Cc1ccco1", "inactive"],
  ["O=C(O)c1cc2ccccc2c(Cc2c(O)c(C(=O)O)cc3ccccc23)c1O", "active"],
  ["O=C(O)CCCc1ccccc1", "inactive"],
  ["CCn1nc(C)cc1C(=O)N1CCC2(CC1)c1ccccc1[C@@H](NC(=O)c1cccnc1)[C@@H]2O", "inactive"],
  ["O=C(O)c1cc(-c2ccccc2)nc2ccccc12", "inactive"],
  ["CCCCc1oc2ccccc2c1C(=O)c1cc(I)c(OCCN(CC)CC)c(I)c1", "inactive"],
  ["CC(=O)c1ccc2oc3ccccc3c(=O)c2c1", "inactive"],
  ["N[C@@H](Cc1ccc(O)c(I)c1)C(=O)O", "inactive"],
  ["CS(=O)(=O)OCCCNCCCOS(C)(=O)=O", "inactive"],
  ["CCc1oc2ccccc2c1C(=O)c1cc(Br)c(O)c(Br)c1", "active"],
  ["CN(C)C(=O)c1ccc(-c2ccc3ncnc(NC4CC4)c3c2)cc1", "inactive"],
  ["N#C/C(=C\\c1c[nH]c2ccccc12)C(=O)c1ccc(O)c(O)c1", "inactive"],
  ["O=C(/C=C\\c1ccc(O)c(O)c1)O[C@@H](Cc1ccc(O)c(O)c1)C(=O)O", "inactive"],
  ["CCCCCCCCCCCCCC[N+](C)(C)C", "inactive"],
  ["COc1c2ccccc2nc2occc12", "inactive"],
  ["C/C1=C2N=C(/C=C3N=C(/C(C)=C4\\[N-]C(C(CC(N)=O)C4(C)CCC(=O)NCC(C)OP(=O)([O-])OC4C(CO)OC(n5cnc6cc(C)c(C)cc65)C4O)C4(C)N=C1C(CCC(N)=O)C4(C)CC(N)=O)C(CCC(N)=O)C\\3(C)C)C(CCC(N)=O)C/2(C)CC(N)=O.[CH3-].[Co+3] (stereo unspecified)", "active"],
  ["COc1cc(=O)n2c(c1C(=O)N(C)Cc1nonc1C)CCN(Cc1ccc(F)cc1)CC2", "inactive"],
  ["O=C(Nc1cccc(F)c1)N1CC[C@@]2(CCCN(C(=O)c3ccco3)C2)C1", "inactive"],
  ["CO[C@H]1C=CO[C@@]2(C)Oc3c(C)c(O)c4c(O)c(c(C=NN5CCN(C)CC5)c(O)c4c3C2=O)NC(=O)C(C)=CC=C[C@H](C)[C@H](O)[C@@H](C)[C@@H](O)[C@@H](C)[C@H](OC(C)=O)[C@H]1C", "inactive"],
  ["CC(C)C[C@@H](CO)N1CCN(Cc2ccccc2)CCC1=O", "inactive"],
  ["CN(C)/N=N/c1nc[nH]c1C(N)=O", "inactive"],
  ["C[N+](C)(CCCCCC[N+](C)(C)CCCN1C(=O)c2ccccc2C1=O)CCCN1C(=O)c2ccccc2C1=O", "inactive"],
  ["COc1ccc2[nH]cc(CCO)c2c1", "inactive"],
  ["Cc1cc(O)c(C=O)c(O)c1C(=O)O", "inactive"],
  ["COc1cccc(-c2oc3ccccc3c(=O)c2O)c1", "inactive"],
  ["O=C(c1cccc(F)c1)N1CCC2(CCCN(c3ccncc3)C2)CC1", "inactive"],
  ["N#CC[C@H](Cc1ccccc1)N1CCN(Cc2ccccc2)CCC1=O", "inactive"],
  ["O=C(Oc1cc(OC(=O)c2ccccc2)c2c(c1)OC(c1ccc(OC(=O)c3ccccc3)c(OC(=O)c3ccccc3)c1)[C@@H](OC(=O)c1ccccc1)C2)c1ccccc1 (stereo partly specified)", "inactive"],
  ["COCCn1c(=O)c(-c2cc(F)cc(F)c2)nc2cnc(Oc3ccc(OC)cc3)nc21", "inactive"],
  ["COc1ccc(C2Sc3ccccc3N(CCN(C)C)C(=O)[C@@H]2OC(C)=O)cc1 (stereo partly specified)", "inactive"],
  ["CC(C)(C)OC(=O)NS(=O)(=O)NOCc1ccccc1", "inactive"],
  ["CC(O)c1nc2ccccc2[nH]1 (stereo unspecified)", "inactive"]
]}
